Tested on: Serum
Experiment summary: Stability in 50% human serum assessed as amount of parent drug released from cattle bone meal powder over 24 hrs
Type: ADME, cell-free
Lab note: class by Activity, see 1 (below 0.4%), 2 (0.4% to below 0.8%), 3 (0.8% or more)

Problem: Exam item: assign COc1c(N2CCNC(C)C2)c(F)cc2c(=O)c(C(=O)OCC(=O)Nc3ccc(CC(P(=O)(O)O)P(=O)(O)O)cc3)cn(C3CC3)c12 (stereo unspecified) to the correct category.
Solution: 2

Problem: Exam item: assign COc1c(N2CCNC(C)C2)c(F)cc2c(=O)c(C(=O)SCCCC(P(=O)(O)O)P(=O)(O)O)cn(C3CC3)c12 (stereo unspecified) to the correct category.
Solution: 1

Problem: Exam item: assign `COc1c(N2C[C@@H]3CCCN[C@@H]3C2)c(F)cc2c(=O)c(C(=O)OCC(=O)Nc3ccc(CC(P(=O)(O)O)P(=O)(O)O)cc3)cn(C3CC3)c12` to the correct category.
Solution: 3

Problem: Exam item: assign `COc1c(N2C[C@@H]3CCCN[C@@H]3C2)c(F)cc2c(=O)c(C(=O)SCCCC(P(=O)(O)O)P(=O)(O)O)cn(C3CC3)c12` to the correct category.
Solution: 1

Problem: Exam item: assign `COc1c(N2C[C@@H]3CCCN[C@@H]3C2)c(F)cc2c(=O)c(C(=O)OCC(=O)NC(P(=O)(O)O)P(=O)(O)O)cn(C3CC3)c12` to the correct category.
Solution: 3

Problem: Exam item: assign `COc1c(N2C[C@@H]3CCCN[C@@H]3C2)c(F)cc2c(=O)c(C(=O)SCC(=O)NC(P(=O)(O)O)P(=O)(O)O)cn(C3CC3)c12` to the correct category.
Solution: 2

Problem: Exam item: assign COc1c(N2CCNC(C)C2)c(F)cc2c(=O)c(C(=O)Oc3ccc(C(P(=O)(O)O)P(=O)(O)O)cc3)cn(C3CC3)c12 (stereo unspecified) to the correct category.
Solution: 1

Problem: Exam item: assign COc1c(N2CCNC(C)C2)c(F)cc2c(=O)c(C(=O)OCC(=O)N(C)C(P(=O)(O)O)P(=O)(O)O)cn(C3CC3)c12 (stereo unspecified) to the correct category.
Solution: 2

Problem: Exam item: assign COc1c(N2CCNC(C)C2)c(F)cc2c(=O)c(C(=O)OCC(=O)NC(P(=O)(O)O)P(=O)(O)O)cn(C3CC3)c12 (stereo unspecified) to the correct category.
Solution: 3

* * *

System: Serum
Experiment summary: Stability in 50% rat serum assessed as amount of parent drug released from cattle bone meal powder over 24 hrs
Assay type: ADME, cell-free
Assign satisfied to entries whose Activity meets or exceeds 0.7%; assign not satisfied to the rest.

Problem: Does `COc1c(N2C[C@@H]3CCCN[C@@H]3C2)c(F)cc2c(=O)c(C(=O)OCC(=O)Nc3ccc(CC(P(=O)(O)O)P(=O)(O)O)cc3)cn(C3CC3)c12` have a reported Activity of at least 0.7%?
Solution: satisfied

Problem: Does `COc1c(N2C[C@@H]3CCCN[C@@H]3C2)c(F)cc2c(=O)c(C(=O)SCC(=O)NC(P(=O)(O)O)P(=O)(O)O)cn(C3CC3)c12` have a reported Activity of at least 0.7%?
Solution: not satisfied

Problem: Does COc1c(N2CCNC(C)C2)c(F)cc2c(=O)c(C(=O)OCC(=O)NC(P(=O)(O)O)P(=O)(O)O)cn(C3CC3)c12 (configuration not stated) have a reported Activity of at least 0.7%?
Solution: satisfied

Problem: Does `COc1c(N2C[C@@H]3CCCN[C@@H]3C2)c(F)cc2c(=O)c(C(=O)OCC(=O)NC(P(=O)(O)O)P(=O)(O)O)cn(C3CC3)c12` have a reported Activity of at least 0.7%?
Solution: satisfied

Problem: Does COc1c(N2CCNC(C)C2)c(F)cc2c(=O)c(C(=O)Oc3ccc(C(P(=O)(O)O)P(=O)(O)O)cc3)cn(C3CC3)c12 (configuration not stated) have a reported Activity of at least 0.7%?
Solution: not satisfied

Problem: Does COc1c(N2CCNC(C)C2)c(F)cc2c(=O)c(C(=O)OCC(=O)N(C)C(P(=O)(O)O)P(=O)(O)O)cn(C3CC3)c12 (configuration not stated) have a reported Activity of at least 0.7%?
Solution: satisfied

* * *

Tested on: Serum
Experiment summary: Stability in 50% rat serum assessed as amount of parent drug released from cattle bone meal powder over 24 hrs
Type: ADME, cell-free
So I've got a bunch of molecules here, and I need their Activity values.
Provide the reading as a plain figure in %.

Measured Activity, `COc1c(N2C[C@@H]3CCCN[C@@H]3C2)c(F)cc2c(=O)c(C(=O)SCCCC(P(=O)(O)O)P(=O)(O)O)cn(C3CC3)c12` : 0.1

Measured Activity, COc1c(N2CCNC(C)C2)c(F)cc2c(=O)c(C(=O)OCC(=O)NCCCC[C@@H](NC(=O)COC(=O)c3cn(C4CC4)c4c(OC)c(N5CCNC(C)C5)c(F)cc4c3=O)C(=O)NC(P(=O)(O)O)P(=O)(O)O)cn(C3CC3)c12 (some centres undefined) : 0.4

Measured Activity, COc1c(N2CCNC(C)C2)c(F)cc2c(=O)c(C(=O)SCCCC(P(=O)(O)O)P(=O)(O)O)cn(C3CC3)c12 (centres undefined) : 0.1

Measured Activity, COc1c(N2CCNC(C)C2)c(F)cc2c(=O)c(C(=O)OCC(=O)Nc3ccc(CC(P(=O)(O)O)P(=O)(O)O)cc3)cn(C3CC3)c12 (centres undefined) : 0.6

* * *

So I've got a bunch of compounds here, and I need their Activity values.
System: Bone
Experiment summary: Binding affinity to bone assessed as drug level bound to cattle bone meal powder by fluorescence assay
Format: tissue-based
Set-up: concentration or dose not given beside the values
Assay context: Bos taurus; Bone element
Provide the reading as a plain figure in %.

Entry `COc1c(N2C[C@@H]3CCCN[C@@H]3C2)c(F)cc2c(=O)c(C(=O)SCCCC(P(=O)(O)O)P(=O)(O)O)cn(C3CC3)c12` under Bone had Activity of 99.9

Entry `COc1c(N2C[C@@H]3CCCN[C@@H]3C2)c(F)cc2c(=O)c(C(=O)OCCCCC(P(=O)(O)O)P(=O)(O)O)cn(C3CC3)c12` under Bone had Activity of 92.7

Entry `COc1c(N2C[C@@H]3CCCN[C@@H]3C2)c(F)cc2c(=O)c(C(=O)OCC(=O)NC(P(=O)(O)O)P(=O)(O)O)cn(C3CC3)c12` under Bone had Activity of 98.7

Entry `COc1c(N2C[C@@H]3CCCN[C@@H]3C2)c(F)cc2c(=O)c(C(=O)SCC(=O)NC(P(=O)(O)O)P(=O)(O)O)cn(C3CC3)c12` under Bone had Activity of 99

Entry `COc1c(N2C[C@@H]3CCCN[C@@H]3C2)c(F)cc2c(=O)c(C(=O)OCCCC(P(=O)(O)O)P(=O)(O)O)cn(C3CC3)c12` under Bone had Activity of 93.8

Entry COc1c(N2CCNC(C)C2)c(F)cc2c(=O)c(C(=O)OCC(=O)N(C)C(P(=O)(O)O)P(=O)(O)O)cn(C3CC3)c12 (stereo not drawn) under Bone had Activity of 90.4

Entry `COc1c(N2C[C@@H]3CCCN[C@@H]3C2)c(F)cc2c(=O)c(C(=O)OCC(=O)Nc3ccc(CC(P(=O)(O)O)P(=O)(O)O)cc3)cn(C3CC3)c12` under Bone had Activity of 97.2

Entry COc1c(N2CCNC(C)C2)c(F)cc2c(=O)c(C(=O)OCC(=O)NC(P(=O)(O)O)P(=O)(O)O)cn(C3CC3)c12 (stereo not drawn) under Bone had Activity of 91

Entry COc1c(N2CCNC(C)C2)c(F)cc2c(=O)c(C(=O)OCC(=O)NCCCC[C@@H](NC(=O)COC(=O)c3cn(C4CC4)c4c(OC)c(N5CCNC(C)C5)c(F)cc4c3=O)C(=O)NC(P(=O)(O)O)P(=O)(O)O)cn(C3CC3)c12 (stereo partly drawn) under Bone had Activity of 92.8

Entry COc1c(N2CCNC(C)C2)c(F)cc2c(=O)c(C(=O)OCC(=O)Nc3ccc(CC(P(=O)(O)O)P(=O)(O)O)cc3)cn(C3CC3)c12 (stereo not drawn) under Bone had Activity of 88.9

Entry COc1c(N2CCNC(C)C2)c(F)cc2c(=O)c(C(=O)Oc3ccc(C(P(=O)(O)O)P(=O)(O)O)cc3)cn(C3CC3)c12 (stereo not drawn) under Bone had Activity of 79.2

Entry COc1c(N2CCNC(C)C2)c(F)cc2c(=O)c(C(=O)SCCCC(P(=O)(O)O)P(=O)(O)O)cn(C3CC3)c12 (stereo not drawn) under Bone had Activity of 98.7

Entry `COc1c(N2C[C@@H]3CCCN[C@@H]3C2)c(F)cc2c(=O)c(C(=O)OCC(=O)N(C)C(P(=O)(O)O)P(=O)(O)O)cn(C3CC3)c12` under Bone had Activity of 97.3
